# System: rodent lifetime carcinogenesis bioassay, tumor incidence TD50
# Experiment: carcinogenic potency in animals, long-term in vivo studies, CPDB compilation (AID 1745844)
# Experimental Setup: rat; strain Wistar; females; i.v.; site: any site (literature study); lesion: malignant tumor; dosed 75 weeks; study length 104 weeks
Active and inactive are the calls of the source. How the calls were made is not given here.
Reported Metric: TD50

query: Could you tell me which TD50 is on file for `C=Cc1cccc[n+]1[O-]` ?
result: 175 mg/kg/day (inactive)

---

# System: rodent lifetime carcinogenesis bioassay, tumor incidence TD50
# Experiment: carcinogenic potency in animals, long-term in vivo studies, CPDB compilation (AID 1745844)
# Experimental Setup: mouse; strain B6C3F1; males; in feed; site: liver; lesion: hepatocellular adenoma + hepatocellular carcinoma + neoplastic nodule; dosed 103 weeks; study length 111 weeks
Reported Metric: TD50 (mg/kg/day)
Give the quantity in mg/kg/day, number only.

query: Reported TD50 for `Nc1cc(Cl)c(N)c(Cl)c1` : what is it?
result: 737

---

# System: rodent lifetime carcinogenesis bioassay, tumor incidence TD50
# Experiment: carcinogenic potency in animals, long-term in vivo studies, CPDB compilation (AID 1745844)
# Experimental Setup: rat; strain Buffalo; females; in feed; site: mammary gland; lesion: adenocarcinoma; dosed 46 weeks; study length 64 weeks
Reported Metric: TD50

query: I am curious: what TD50 value has been reported for `O=CNNc1nc(-c2ccc([N+](=O)[O-])o2)cs1` ?
result: 13.1 mg/kg/day

---

Listing of entries alongside the reported TD50.
# Test system: rodent lifetime carcinogenesis bioassay, tumor incidence TD50
# Experiment: carcinogenic potency in animals, long-term in vivo studies, CPDB compilation (AID 1745844)
# Experimental Setup: rat; strain ACI; males; in feed; site: testis; lesion: interstitial-cell tumor; dosed 77 weeks; study length 77 weeks
Activity calls are given as the source filed them. How the calls were made is not given here.

C[C@@H]1O[C@@H](OC[C@H]2O[C@@H](Oc3c(-c4ccc(O)c(O)c4)oc4cc(O)cc(O)c4c3=O)[C@H](O)[C@@H](O)[C@@H]2O)[C@H](O)[C@H](O)[C@H]1O ... 3530 mg/kg/day (inactive)

query: TD50 lookup needed for `O=c1c(O)c(-c2ccc(O)c(O)c2)oc2cc(O)cc(O)c12` , thanks.
result: 2290 mg/kg/day (inactive)

---

# Test system: rodent lifetime carcinogenesis bioassay, tumor incidence TD50
# Experiment: carcinogenic potency in animals, long-term in vivo studies, CPDB compilation (AID 1745844)
# Experimental Setup: mouse; strain B6C3F1; females; in feed; site: all sites; lesion: malignant lymphoma; dosed 105 weeks; study length 105 weeks
Reported Metric: TD50

query: Param item = `O=C1OC(c2ccc(O)cc2)(c2ccc(O)cc2)c2ccccc21` ; retrieve measured TD50.
result: 748 mg/kg/day

---

# Test system: rodent lifetime carcinogenesis bioassay, tumor incidence TD50
# Experiment: carcinogenic potency in animals, long-term in vivo studies, CPDB compilation (AID 1745844)
# Experimental Setup: rat; strain Fischer 344; females; in drinking water; site: skin; lesion: basal-cell adenoma + basal-cell carcinoma; dosed 98 weeks; study length 104 weeks
Reported Metric: TD50

query: Entry `Cc1ccc(S(=O)(=O)Oc2ccc(N=Nc3ccc(-c4ccc(N=Nc5c(O)ccc6cc(S(=O)(=O)O)cc(S(=O)(=O)O)c56)c(C)c4)cc3C)cc2)cc1` has what TD50?
result: 21.9 mg/kg/day

---

# System: rodent lifetime carcinogenesis bioassay, tumor incidence TD50
# Experiment: carcinogenic potency in animals, long-term in vivo studies, CPDB compilation (AID 1745844)
# Experimental Setup: mouse; strain B6C3F1; females; by gavage; site: forestomach; lesion: squamous-cell papilloma; dosed 103 weeks; study length 104 weeks
Reported Metric: TD50 (mg/kg/day)
Numbers only; they are read as mg/kg/day.

Sample records with TD50:
O=Cc1ccco1 ... 920
CN(C)c1ccccc1 ... 99.3
O=c1ccc2ccccc2o1 ... 12200

query: What value of TD50 has been reported for the following compound? `c1ccc2occc2c1`
result: 172

---

# Test system: rodent lifetime carcinogenesis bioassay, tumor incidence TD50
# Experiment: carcinogenic potency in animals, long-term in vivo studies, CPDB compilation (AID 1745844)
# Experimental Setup: mouse; strain B6C3F1; males; in feed; site: all sites; lesion: lymphoma and leukemia, combined; dosed 96 weeks; study length 96 weeks
Reported Metric: TD50 (mg/kg/day)
Write the number in mg/kg/day without appending the unit.

query: Entry `Oc1ccccc1O` has what TD50?
result: 2460

---

A collection of compounds and their measured TD50
# System: rodent lifetime carcinogenesis bioassay, tumor incidence TD50
# Experiment: carcinogenic potency in animals, long-term in vivo studies, CPDB compilation (AID 1745844)
# Experimental Setup: rat; strain Charles River CD (Sprague-Dawley); males; i.p.; site: any site (literature study); lesion: several types; types named in the paper; dosed 26 weeks; study length 78 weeks
Numbered stars: 1 amine (or outer) side, 2 acyl side, 3 side chain; on linkers, the order of the positions; unused ones are H or OH. Bridge positions count the residues as written; N and C are the ends. Square brackets hold non-standard residues; d marks the D form. Peptide text beside a SMILES is read from it. I, II: the chains in the order shown. Actinocin(9to1) = Cc1c2oc3c(C)ccc(C(=O)[*:1])c3nc-2c(C(=O)[*:2])c(N)c1=O; NMeV = CN[C@H](C(=O)O)C(C)C; Sar = CNCC(=O)O
Response body: numeric value in mg/kg/day, unit text excluded.

O[C@H]([C@H](O)[C@@H](O)CBr)[C@H](O)CBr ... 3.13

query: Hi! What's the reported TD50 for Cc1c2oc3c(C)ccc(C(=O)N[C@@H]4C(=O)N[C@H](C(C)C)C(=O)N5CCC[C@H]5C(=O)N(C)CC(=O)N(C)[C@@H](C(C)C)C(=O)O[C@@H]4C)c3nc-2c(C(=O)N[C@@H]2C(=O)N[C@H](C(C)C)C(=O)N3CCC[C@H]3C(=O)N(C)CC(=O)N(C)[C@@H](C(C)C)C(=O)O[C@@H]2C)c(N)c1=O (I: T[dV]P[Sar][NMeV] / II: T[dV]P[Sar][NMeV]; ester I:1-I:C, II:1-II:C; linker I:N-II:N via Actinocin(9to1)) on rodent lifetime carcinogenesis bioassay, tumor incidence TD50?
result: 0.000501

query: What do you have for `O[C@@H]([C@H](O)[C@H](O)CBr)[C@H](O)CBr` ?
result: 7.95

query: What would you report for `CN(N=O)C(=O)N[C@@H](C=O)[C@@H](O)[C@H](O)[C@H](O)CO` ?
result: 0.751

---

# System: rodent lifetime carcinogenesis bioassay, tumor incidence TD50
# Experiment: carcinogenic potency in animals, long-term in vivo studies, CPDB compilation (AID 1745844)
# Experimental Setup: rat; strain Fischer 344; males; inhaled; site: testis; lesion: interstitial-cell adenoma; dosed 72 weeks; study length 73 weeks
The source made the active and inactive calls. No rule for the calls is given here.
Reported Metric: TD50

query: // TD50 lookup, key: `CC(C)O`
result: 456 mg/kg/day (inactive)

---

# Test system: rodent lifetime carcinogenesis bioassay, tumor incidence TD50
# Experiment: carcinogenic potency in animals, long-term in vivo studies, CPDB compilation (AID 1745844)
# Experimental Setup: rat; strain ACI; males; in feed; site: colorectum; lesion: adenocarcinoma; dosed 68 weeks; study length 68 weeks
Reported Metric: TD50

query: Lab request: please report TD50 under test system rodent lifetime carcinogenesis bioassay, tumor incidence TD50 for `CCOC(=O)c1ccc(N)cc1`
result: 182 mg/kg/day

---

# System: rodent lifetime carcinogenesis bioassay, tumor incidence TD50
# Experiment: carcinogenic potency in animals, long-term in vivo studies, CPDB compilation (AID 1745844)
# Experimental Setup: rat; strain Fischer 344; females; inhaled; site: oral mucosa + gingiva + pharynx + tongue; lesion: squamous-cell papilloma + squamous-cell carcinoma; dosed 104 weeks; study length 104 weeks
Reported Metric: TD50

query: Which value of TD50 has been reported for `C=CC(=C)Cl` in the records?
result: 33.9 mg/kg/day

---

# System: rodent lifetime carcinogenesis bioassay, tumor incidence TD50
# Experiment: carcinogenic potency in animals, long-term in vivo studies, CPDB compilation (AID 1745844)
# Experimental Setup: rat; strain Fischer 344; males; in feed; site: skin; lesion: carcinoma + squamous-cell papilloma; dosed 103 weeks; study length 104 weeks
Reported Metric: TD50 (mg/kg/day)
Quick reminder: number only, in mg/kg/day, skip the unit.

query: Find the recorded TD50 belonging to `Cc1ccc(N=Nc2c(O)ccc3ccccc23)c([N+](=O)[O-])c1` and report it.
result: 3660

---

# Tested on: rodent lifetime carcinogenesis bioassay, tumor incidence TD50
# Experiment: carcinogenic potency in animals, long-term in vivo studies, CPDB compilation (AID 1745844)
# Experimental Setup: mouse; strain B6C3F1; females; in feed; site: all sites; lesion: histiocytic sarcoma; dosed 105 weeks; study length 105 weeks
Reported Metric: TD50

query: Data request, read-out TD50, for `O=C1OC(c2ccc(O)cc2)(c2ccc(O)cc2)c2ccccc21`
result: 4080 mg/kg/day

These measurements were taken from PubChem BioAssay AID1745844.
